TARGET SYSTEM: human glucagon receptor (human, UniProt P47871 26-477)
EXPERIMENTAL DETAILS: cell-based or functional assay
Starred links: 1 amine or outer side, 2 acyl side, 3 side chain; linkers in the order of their positions; H or OH if unused. Non-standard residues stand in square brackets, D forms with d. No end group written: not given here. *: point of attachment. 2,4‑diF‑APPA = 2-amino-5-(2,4-difluorophenyl)pentanoic acid, O=C([C@H](CCCc1ccc(F)cc1F)N[*:1])[*:2]; 2F,4CF3‑APPA = 2-amino-5-(2-fluoro-4-(trifluoromethyl)phenyl)pentanoic acid; 2Cl,4OMe‑APPA = 2-amino-5-(2-chloro-4-methoxyphenyl)pentanoic acid; Bip(2'-Et-4'-OMe) = CCc1cc(OC)ccc1-c1ccc(C[C@H](N)C(=O)O)cc1; Leu(5,5,5,5',5',5'-F6) = N[C@@H](CC(C(F)(F)F)C(F)(F)F)C(=O)O; 2F‑APPA = 2-amino-5-(2-fluorophenyl)pentanoic acid; αMePhe(2-F) = C[C@](N)(Cc1ccccc1F)C(=O)O; hhPhe = N[C@@H](CCCc1ccccc1)C(=O)O; 2,4‑diCl‑APPA = not defined here; aThr = C[C@H](O)[C@H](N)C(=O)O; CNB = not defined here; Aib = CC(C)(N)C(=O)O; Moc = COC(=O)*

BINDER | inhibition of cAMP production, 1 nM / pmol/ml/µg prt
Ac-H[Aib]QGT[αMePhe(2-F)]TSD[Bip(2'-Et-4'-OMe)][2F‑APPA] (also: reduced (CH2) bonds between 9-10 and 10-11) [Seq. ID. No. 195: CH3CO-H-Aib-QGT-(α-Me-2F-Phe)-TSD-(CH2)-Bip(OMe)-(CH2)-(2F-APPA)] | 15
H[Aib][Leu(5,5,5,5',5',5'-F6)]GT[αMePhe(2-F)][aThr]SD[Bip(2'-Et-4'-OMe)][hhPhe] [Seq. ID. No. 225: H-Aib-(Hfl)-GT-(α-Me-2F-Phe)-T(allo)-SD-Bip(OMe)-(APPA)] | 5
H[Aib][CNB]GTFTSD[Bip(2'-Et-4'-OMe)][2Cl,4OMe‑APPA] (reading uncertain) [Seq. ID. No. 84: H-Aib-(CNB)-GTFTSD-Bip(OMe)-(2Cl,4OMe-APPA)] | 4
Moc-H[Aib][CNB]GT[αMePhe(2-F)]TSD[Bip(2'-Et-4'-OMe)][2F‑APPA] (reading uncertain) [Seq. ID. No. 208: CH3OCO-H-Aib-(CNB)-GT-(α-Me-2F-Phe)-TSD-Bip(OMe)-(2F-APPA)] | 5
H[Aib][CNB]GTFTSD[Bip(2'-Et-4'-OMe)][2,4‑diF‑APPA] (reading uncertain) [Seq. ID. No. 78: H-Aib-(CNB)-GTFTSD-Bip(OMe)-(2,4-diF-APPA)] | 22
H-HSQGTFTSD[Bip(2'-Et-4'-OMe)][hhPhe]-NH2 [Seq. ID. No. 5: HSQGTFTSD-Bip(OMe)-(APPA)] | 6
HSQGTFTSD[Bip(2'-Et-4'-OMe)][2,4‑diCl‑APPA] (reading uncertain) [Seq. ID. No. 51: HSQGTFTSD-Bip(OMe)-(2,4-diCl-APPA)] | 5
H[Aib][CNB]G[aThr][αMePhe(2-F)][aThr]SD[Bip(2'-Et-4'-OMe)][2F‑APPA] (reading uncertain; also: reduced (CH2) bonds Z9-Z10 and Z10-Z11) [Seq. ID. No. 204: H-Aib-(CNB)-G-T(allo)-(α-Me-2F-Phe)-T(allo)-SD-(CH2)-Bip(OMe)-(CH2)-(2F-APPA)] | 6
H[Aib][CNB]G[aThr][αMePhe(2-F)][aThr]SD[Bip(2'-Et-4'-OMe)][hhPhe] (reading uncertain) [Seq. ID. No. 114: H-Aib-(CNB)-G-T(allo)-(α-Me-2F-Phe)-T(allo)-SD-Bip(OMe)-(APPA)] | 4
H[Aib]QGTFTSD[Bip(2'-Et-4'-OMe)][2F,4CF3‑APPA] [Seq. ID. No. 65: H-Aib-QGTFTSD-Bip(OMe)-(2F,4CF3-APPA)] | 10
